Provide the recorded pKi for the entries that follow.
Please treat pKi as minus the base-10 logarithm of the molar concentration.

Problem: Look up pKi with tACEdelta36NJ (tACE, C domain) (Homo sapiens, UniProt P12821) for this compound: O=C(CCC(=O)[C@H](Cc1ccccc1)NC(=O)c1ccccc1)N[C@@H](Cc1c[nH]c2ccccc12)C(=O)O
Sequence (P12821 642-1230 limits assumed): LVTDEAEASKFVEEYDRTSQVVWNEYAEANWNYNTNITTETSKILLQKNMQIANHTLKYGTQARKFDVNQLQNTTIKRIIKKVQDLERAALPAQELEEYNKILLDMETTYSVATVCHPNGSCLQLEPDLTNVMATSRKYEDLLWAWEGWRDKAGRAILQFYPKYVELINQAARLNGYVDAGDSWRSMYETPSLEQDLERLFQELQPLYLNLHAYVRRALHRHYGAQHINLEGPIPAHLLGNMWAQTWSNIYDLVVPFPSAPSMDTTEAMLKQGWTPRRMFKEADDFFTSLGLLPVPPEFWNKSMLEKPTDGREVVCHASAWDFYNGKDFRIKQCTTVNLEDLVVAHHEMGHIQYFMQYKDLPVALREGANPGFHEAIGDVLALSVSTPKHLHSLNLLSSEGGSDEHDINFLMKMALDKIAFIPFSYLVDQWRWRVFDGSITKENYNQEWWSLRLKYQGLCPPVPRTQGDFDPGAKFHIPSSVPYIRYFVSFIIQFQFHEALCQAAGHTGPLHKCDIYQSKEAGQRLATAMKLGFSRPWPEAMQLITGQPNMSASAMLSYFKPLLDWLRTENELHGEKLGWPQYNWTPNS
Solution: 6.10

Problem: Look up pKi with tACEdelta36NJ (tACE, C domain) (Homo sapiens, UniProt P12821) for this compound: CC(C)(C)OC(=O)N[C@@H](Cc1ccccc1)C(=O)CCC(=O)N1CCC[C@H]1C(=O)O [Compound 11a]
Solution: 3.84

Problem: Look up pKi with tACEdelta36NJ (tACE, C domain) (Homo sapiens, UniProt P12821) for this compound: O=C(CCC(=O)[C@H](Cc1ccccc1)NC(=O)c1ccccc1)N[C@@H](Cc1ccccc1)C(=O)O
Solution: 4.63
